Taken from paper PMC6112376.

Recorded MMP assays efficacy (%) Rat Hepatocytes values (rat primary hepatocytes) are given below.
Give the value in % but do not write % after it.

In the examples that follow, each entry is paired with its recorded MMP assays efficacy (%) Rat Hepatocytes.
Nc1ccc(Cl)cc1N    -88
O=C1NCN(c2ccccc2)C12CCN(CCCOc1ccc(F)cc1)CC2    -37
CNC(=O)c1cc(Oc2ccc(NC(=O)Nc3ccc(Cl)c(C(F)(F)F)c3)cc2)ccn1    -72
O=c1c(-c2ccc(O)cc2)coc2cc(O)cc(O)c12    -70
NC(=O)N1C(=O)/C(=C(\O)c2cccs2)c2cc(Cl)ccc21    -96

Provide the documented MMP assays efficacy (%) Rat Hepatocytes with rat primary hepatocytes as the system for O=C1c2c(O)ccc([N+](=O)[O-])c2C(=O)c2c([N+](=O)[O-])ccc(O)c21 [1,8-Dihydroxy-4,5-dinitroanthraquinone]
-79

I'm curious: which MMP assays efficacy (%) Rat Hepatocytes was measured for Cc1ccc(-n2nc(C(C)(C)C)cc2NC(=O)Nc2ccc(OCCN3CCOCC3)c3ccccc23)cc1 tested on rat primary hepatocytes?
-77

What MMP assays efficacy (%) Rat Hepatocytes appears in the records for this compound with rat primary hepatocytes? CCCCCCCCCCn1cc[n+](CCCCCCCCCC)c1C.[Cl-] [1,3-Didecyl-2-methylimidazolium chloride]
-110

Please state recorded MMP assays efficacy (%) Rat Hepatocytes (tested on rat primary hepatocytes) of Cl.Nc1ccc(/N=N/c2ccccc2)c(N)c1
-34

// lookup MMP assays efficacy (%) Rat Hepatocytes | system=rat primary hepatocytes | key= O=C(Nc1ccc([N+](=O)[O-])cc1Cl)c1cc(Cl)ccc1O [Niclosamide, reference compound]
-112

Value wanted: MMP assays efficacy (%) Rat Hepatocytes (rat primary hepatocytes) of entry Cc1cc(C(C)(C)c2ccc(O)c(C)c2)ccc1O
-56

Lab note: need MMP assays efficacy (%) Rat Hepatocytes with rat primary hepatocytes for entry CN1C(C(=O)Nc2ccccn2)=C(O)c2sccc2S1(=O)=O , please look it up.
-65

State its MMP assays efficacy (%) Rat Hepatocytes on rat primary hepatocytes: CCCN(CCC)c1c([N+](=O)[O-])cc(C(F)(F)F)c(N)c1[N+](=O)[O-]
-95

###

- System: Caenorhabditis elegans strain PE255
- ASSAY COMMENT: In vivo C. elegans ATP status assay
- EXPERIMENTAL SETUP: 50 µM
Assign labels as follows, please: yes for LUM: mean difference in luminescence (ATP content) relative to plate controls below 0.9; no for LUM: mean difference in luminescence (ATP content) relative to plate controls equal to or exceeding 0.9.

Illustrative cases are given below, each with its answer.
CC[C@@H](C(=O)[C@@H](C)[C@@H](O)[C@H](C)CCc1ccc(C)c(O)c1C(=O)O)[C@H]1O[C@](CC)([C@H]2CC[C@](O)(CC)[C@H](C)O2)C[C@@H]1C [Lasalocid sodium, reference compound]    yes
CCc1cc(Cc2cc(CC)cc(C(C)(C)C)c2O)c(O)c(C(C)(C)C)c1    yes
O=C(Nc1ccc(Oc2ccc(Cl)cc2)c(Cl)c1)c1cc(I)cc(I)c1O [Rafoxanide, reference compound]    yes
Nc1ccc(N)c2c1C(=O)c1ccccc1C2=O    no
Nc1ccc2c(c1)C(=O)c1ccccc1C2=O    no
O=C(O)c1cc(O)c2c(c1)C(=O)c1cccc(O)c1C2=O    yes
CCN1C(=CC=Cc2ccc3ccccc3[n+]2CC)C=Cc2ccccc21.[Cl-] [Pinacyanol chloride]    no

Note: attention shifts to another entry.
Does the reported LUM: mean difference in luminescence (ATP content) relative to plate controls of the following molecule sit strictly below 0.9? O=C(Nc1ccc([N+](=O)[O-])cc1Cl)c1cc(Cl)ccc1O [Niclosamide, reference compound]
yes

###

Listing: LUM: mean difference in luminescence (ATP content) relative to plate controls of selected molecules
- Test system: Caenorhabditis elegans strain PE255
- ASSAY COMMENT: In vivo C. elegans ATP status assay
- EXPERIMENTAL SETUP: 25 µM
# respond with the number and nothing more

# count of solved cases: 4
CO/C=C(/C(=O)OC)c1ccccc1COc1cccc(C(F)(F)F)n1    0.0568
Cl.N=C1C=CC(=C(c2ccc(N)cc2)c2ccc(N)cc2)C=C1 [C.I. Basic red 9 monohydrochloride]    1.533
O=C(Nc1ccc(Oc2ccc(Cl)cc2)c(Cl)c1)c1cc(I)cc(I)c1O [Rafoxanide, reference compound]    0.5878
O=C(Nc1ccc([N+](=O)[O-])cc1Cl)c1cc(Cl)ccc1O [Niclosamide, reference compound]    0.2438

Return reported LUM: mean difference in luminescence (ATP content) relative to plate controls; argument: O=C(Nc1ccc(Cl)cc1)Nc1ccc(Cl)c(Cl)c1
3.397

Returns the measured LUM: mean difference in luminescence (ATP content) relative to plate controls for the input molecule. Input: NNc1nc(-c2ccc([N+](=O)[O-])cc2)cs1 [2-Hydrazino-4-(4-nitrophenyl)thiazole]
0.7526

Look up LUM: mean difference in luminescence (ATP content) relative to plate controls: CC(C)[C@@H]1NC(=O)[C@H](C)OC(=O)[C@@H](C(C)C)NC(=O)[C@@H](C(C)C)OC(=O)[C@H](C(C)C)NC(=O)[C@H](C)OC(=O)[C@@H](C(C)C)NC(=O)[C@@H](C(C)C)OC(=O)[C@H](C(C)C)NC(=O)[C@H](C)OC(=O)[C@@H](C(C)C)NC(=O)[C@@H](C(C)C)OC1=O
1.023

Give its LUM: mean difference in luminescence (ATP content) relative to plate controls value. Item: CC[C@@H](C(=O)[C@@H](C)[C@@H](O)[C@H](C)CCc1ccc(C)c(O)c1C(=O)O)[C@H]1O[C@](CC)([C@H]2CC[C@](O)(CC)[C@H](C)O2)C[C@@H]1C [Lasalocid sodium, reference compound]
0.7982

###

- System: rat primary hepatocytes
Counter-ions that a name gives are not always drawn.
PROPERTY MEASURED: MMP assays efficacy (%) Rat Hepatocytes
Use % as the unit, but write only the number.

CCOc1ccccc1OCCN[C@H](C)Cc1ccc(OC)c(S(N)(=O)=O)c1 [Tamsulosin hydrochloride]    -45
O=C1c2cccc(O)c2C(=O)c2c(O)cccc21    -40
O=C(Nc1ccccc1)Nc1ccnc(Cl)c1    -108
IC(I)=C(I)I    -115

# get_value(readout= MMP assays efficacy (%) Rat Hepatocytes, system= rat primary hepatocytes) for COC(=O)N(C(=O)N1CO[C@@]2(C(=O)OC)Cc3cc(Cl)ccc3C2=N1)c1ccc(OC(F)(F)F)cc1
-88

Could you share what MMP assays efficacy (%) Rat Hepatocytes was measured for CC(C)(C)c1cc([N+](=O)[O-])cc(C(C)(C)C)c1O , tested on rat primary hepatocytes?
-109

###

What follows is a collection of MMP assays efficacy (%) HepG2 values obtained with HepG2 cells.
Where a name gives a salt, the structure may show the parent alone. Where a SMILES comes first, the peptide text is derived from it. [ ]: non-standard residue; d: D form. Orn = NCCC[C@H](N)C(=O)O
Provide the reading as a plain figure in %.

O=C(N[C@@H]1N=C(c2ccccc2F)c2cccc3c2N(CC3)C1=O)c1cc2ccccc2[nH]1    -81

Find MMP assays efficacy (%) HepG2 (HepG2 cells) for the entry CCCCCCCCCCCCCC[n+]1ccc(C)cc1.[Cl-] [Miripirium chloride]
-121

Provide the documented MMP assays efficacy (%) HepG2 with HepG2 cells as the system for CC(C)C[C@@H]1NC(=O)[C@H](CCCN)NC(=O)[C@H](C(C)C)NC(=O)[C@@H]2CCCN2C(=O)[C@@H](Cc2ccccc2)NC(=O)[C@H](CC(C)C)NC(=O)[C@H](CCCN)NC(=O)[C@H](C(C)C)NC(=O)[C@@H]2CCCN2C(=O)[C@@H](Cc2ccccc2)NC1=O [gramicidin, reference compound] (cyclo(L[dF]PV[Orn]L[dF]PV[Orn]))
-121

I'm curious: which MMP assays efficacy (%) HepG2 was measured for Cl.Cl.Nc1ccccc1N [1,2-Phenylenediamine dihydrochloride] tested on HepG2 cells?
-90

Form entry - test system: HepG2 cells; read-out: MMP assays efficacy (%) HepG2; molecule: CC(C)c1ccc(O)c(C(C)C)c1
-115

Provide value of MMP assays efficacy (%) HepG2 for this record tested with HepG2 cells: [Ba+2].[Cl-].[Cl-] [Barium chloride]
-46

Could you share what MMP assays efficacy (%) HepG2 was measured for Nc1ccc(-c2ccc(N)c(N)c2)cc1N [3,3',4,4'-Tetraaminobiphenyl tetrahydrochloride] , tested on HepG2 cells?
-82

###

- Tested on: HepG2 cells
- EXPERIMENTAL SETUP: HepG2 cells; single number from one experiment
PROPERTY MEASURED: MMP assays efficacy (%) HepG2
# value in %; strip the unit string

Past entries and their recorded results:
Cc1cc(C(C)(C)C)c(O)c(C)c1Cn1c(=O)n(Cc2c(C)cc(C(C)(C)C)c(O)c2C)c(=O)n(Cc2c(C)cc(C(C)(C)C)c(O)c2C)c1=O    -82
Oc1ccc(Cl)cc1C1CCCC1 [Compound 4-Chloro-2-cyclopentylphenol]    -99

What does the data say about its MMP assays efficacy (%) HepG2? Entry: O.O.O.O.[Na+].[O-]c1ccccc1-c1ccccc1 [Sodium 2-phenylphenate tetrahydrate]
-77
